test system: L1210 leukemia ip in BDF1 mice, survival T/C; experiment: NCI In Vivo Anticancer Drug Screen. Data for tumor model L1210 Leukemia (intraperitoneal) in B6D2F1 (BDF1) mice; settings: endpoint: mean survival time; dose: 200.0 mg/kg/injection; schedule: Q04DX003 (ip); vehicle: saline with Tween-80; higher = longer survival
Inconclusive results and toxic doses are left out.
property-measured: T/C

CC(C)(COCOCC(C)(C)[N+](=O)[O-])[N+](=O)[O-]    103 % of control
OCC(O)C(O)C(O)C(O)C(O)c1nc2ccccc2[nH]1 (stereo unspecified)    93 % of control
CCNC(C)(C)C(O)c1ccc(Cl)s1 (stereo unspecified)    102 % of control
Br/C=C(\Br)C[N+]12CN3CN(CN(C3)C1)C2    114 % of control
CC(=O)N1c2ccccc2Sc2cc(C(O)(C(F)(F)F)C(F)(F)F)ccc21    91 % of control

Turning now to a further compound:
T/C of S=c1[nH]ccc2n[nH]nc12 on L1210 leukemia ip in BDF1 mice, survival T/C?
98 % of control

Where these numbers come from: PubChem BioAssay AID248
